Reported % cells bound by item:
- Study system: T1, mouse IL-12Rβ2 (mouse, UniProt P97378 24-874)
- T1 construct: Expressed on HEK293T cells transiently transfected with a pcDNA3 plasmid (Genscript clone OMu01776); also called mIL-12RB2; NP_032380.1
- T1 sequence: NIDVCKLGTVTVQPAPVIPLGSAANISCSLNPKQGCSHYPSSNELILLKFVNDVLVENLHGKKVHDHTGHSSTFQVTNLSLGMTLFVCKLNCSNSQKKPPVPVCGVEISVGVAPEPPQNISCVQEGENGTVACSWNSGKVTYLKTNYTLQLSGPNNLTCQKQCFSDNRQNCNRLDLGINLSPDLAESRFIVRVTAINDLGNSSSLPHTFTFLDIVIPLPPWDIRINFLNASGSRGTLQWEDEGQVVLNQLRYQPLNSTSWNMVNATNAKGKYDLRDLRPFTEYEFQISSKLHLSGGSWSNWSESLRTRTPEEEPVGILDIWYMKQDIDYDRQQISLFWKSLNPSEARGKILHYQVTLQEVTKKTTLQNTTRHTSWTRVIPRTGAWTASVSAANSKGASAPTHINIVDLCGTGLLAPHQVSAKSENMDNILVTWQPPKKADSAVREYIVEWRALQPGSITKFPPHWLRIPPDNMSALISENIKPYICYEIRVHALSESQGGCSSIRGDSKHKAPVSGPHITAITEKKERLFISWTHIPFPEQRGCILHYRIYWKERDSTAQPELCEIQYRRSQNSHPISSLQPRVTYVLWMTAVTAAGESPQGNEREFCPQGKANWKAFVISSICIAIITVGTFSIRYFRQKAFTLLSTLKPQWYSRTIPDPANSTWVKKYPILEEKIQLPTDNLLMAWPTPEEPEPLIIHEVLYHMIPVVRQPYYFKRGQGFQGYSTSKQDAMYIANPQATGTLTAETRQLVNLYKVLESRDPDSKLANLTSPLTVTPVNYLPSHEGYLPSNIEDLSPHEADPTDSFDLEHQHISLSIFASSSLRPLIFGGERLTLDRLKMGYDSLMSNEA
- Assay info: flow cytometry, P.E. on transfected HEK293T cells
// return numeric value only (unit: %, not printed)

A selection of reference data follows.
Input line: Which % cells bound is reported for this binder? anti-IL-12Rβ2 VHH clone 3CRHM133 (VHH, not shown: small tags and cut ends, periplasmic extract; also called 21063) VHH: QVQLQESGGGSVQAGGSLRLSCAVSGRPVSDYAMGWFRQAPGKEREFVAALSASDTTVYPNSVKGRITISRDNAKNAVDLQMNALKPEDTAVYYCAMGPIGTFQGLARQNEYHYWGQGTQVTVSS
Output line: 0.59

Input line: Name the recorded % cells bound for anti-IL-12Rβ2 VHH clone 3CRHM99 (VHH, not shown: small tags and cut ends, periplasmic extract; also called 21062) VHH: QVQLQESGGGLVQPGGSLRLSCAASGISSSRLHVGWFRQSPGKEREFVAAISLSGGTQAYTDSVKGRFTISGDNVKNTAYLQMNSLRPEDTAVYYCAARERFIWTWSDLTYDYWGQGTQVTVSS .
Output line: 10.7

Input line: Query: % cells bound; subject: anti-IL-12Rβ2 VHH clone 3CRHM73 (VHH, not shown: small tags and cut ends, periplasmic extract; also called 21060) VHH: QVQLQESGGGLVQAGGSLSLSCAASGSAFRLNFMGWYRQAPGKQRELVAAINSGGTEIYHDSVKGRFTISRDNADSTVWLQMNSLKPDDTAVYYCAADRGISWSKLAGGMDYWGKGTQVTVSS
Output line: 10.4

Now examine the next entry.
Input line: Fill in the blank: the reported % cells bound of anti-IL-12Rβ2 VHH clone 3CAHM40 (VHH, not shown: small tags and cut ends, periplasmic extract) VHH: QVQLQESGGGSVQAGGSLRLSCAVSGRTVSDYAMGWFRQAPGKEREFVAAMSSSETTVYPNSMKGRITISRDNAKNAVYLQLNALKPEDTAVYYCSMGPIATFQGLARQNEYHYWGQGTQVTVSS is ____.
Output line: 1.02

The values you see were collected from patent US20260209362A1.
